# PROTOCOL TEXT: self-splicing fitness, log relative to wild type (ln ratio); higher = more splicing; Tetrahymena group I intron in knt gene, E. coli kanamycin selection, DiMSum; sequences stand for … in CUCUCU…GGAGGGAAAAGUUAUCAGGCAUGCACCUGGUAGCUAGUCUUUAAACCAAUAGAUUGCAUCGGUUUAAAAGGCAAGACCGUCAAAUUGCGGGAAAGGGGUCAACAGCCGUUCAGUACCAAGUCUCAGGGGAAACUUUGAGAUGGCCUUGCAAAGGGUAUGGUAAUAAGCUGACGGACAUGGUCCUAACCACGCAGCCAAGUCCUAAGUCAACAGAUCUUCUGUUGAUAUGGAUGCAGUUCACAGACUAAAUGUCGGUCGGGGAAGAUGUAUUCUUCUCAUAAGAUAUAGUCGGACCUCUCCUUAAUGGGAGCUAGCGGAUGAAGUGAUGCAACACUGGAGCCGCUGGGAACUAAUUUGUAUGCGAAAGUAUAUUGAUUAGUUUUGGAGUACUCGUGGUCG;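 also: selection with 25 µg/mL kanamycin versus none on LB agar overnight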
# PROTOCOL CONDITIONS: 37 °C
Classify on self-splicing fitness (ln) using one = under -2, two = from -2 up to -0.7, three = -0.7 and over

CUGCAGCAAUAUUACGACUU : one

Kindly consider the entry below.
GET /class?item= `UUUGAGCAAUAUUACGUCUG`
two
